# Tested on: DLD-1 colon
# Procedure text: NCI tumour cell line growth inhibition, 48 h
Measured quantity: TGI

COC1C2c3ccccc3C(C#N)(Cc3ccc4c(c32)OCO4)N1C(=O)c1ccccc1 (stereo not drawn) has a reported TGI of > 100 µM

N=C1SCCS1 has a reported TGI of > 100 µM

NC(N)=NCCCS(=O)(=O)Nc1ccc(Nc2c3ccccc3nc3cc([N+](=O)[O-])ccc23)cc1 has a reported TGI of > 93.4 µM

----------
Provide the recorded TGI for the entries that follow.
# Test system: TK-10 renal
# Procedure text: NCI tumour cell line growth inhibition, 48 h

The reported TK-10 renal TGI of COC12c3ccccc3-c3ccccc3C1[C@@H](C(=O)O)[C@H]2C(=O)O (stereo not given in full) is > 10 µM

The reported TK-10 renal TGI of COc1ccc(N=C/C=C/C(=C/COC(C)=O)OC(C)=O)cc1 is > 100 µM

The reported TK-10 renal TGI of C[C@H]1ON2CCC[C@@H]2[C@@H]1C(=O)N1C2CC3CCC2(CS1(=O)=O)C3(C)C (stereo not given in full) is > 100 µM

The reported TK-10 renal TGI of COc1cc([C@@H]2c3cc4c(cc3[C@@H](N=Cc3ccc(C(=O)O[C@H]5C[C@H]6OC[C@@]6(OC(C)=O)[C@H]6[C@H](OC(=O)c7ccccc7)[C@]7(O)C[C@H](OC(=O)[C@H](OC(=O)c8ccc(C=N[C@@H]9c%10cc%11c(cc%10[C@@H](c%10cc(OC)c(O)c(OC)c%10)[C@H]%10C(=O)OC[C@@H]%109)OCO%11)cc8)[C@@H](NC(=O)c8ccccc8)c8ccccc8)C(C)=C([C@@H](OC(C)=O)C(=O)[C@]56C)C7(C)C)cc3)C3COC(=O)C32)OCO4)cc(C)c1O (stereo not given in full) is > 50 µM

The reported TK-10 renal TGI of CCC/C(Cl)=N/OC(=O)Nc1cccc(F)c1 is > 19.7 µM

----------
# System: MDA-N
# Procedure text: NCI tumour cell line growth inhibition, 48 h
Provide the recorded TGI for the entries that follow.

C=CCSC1=N/C(=C\c2ccco2)C(=O)N1CC=C has a reported TGI of > 100 µM

O=[N+]([O-])c1ccc2nc(/C=C(\O)c3ccccc3)c(/C=C(\O)c3ccc(Cl)cc3)nc2c1 has a reported TGI of > 100 µM

CC(=O)N(CCc1ccccc1)C(C)(C#N)c1ccccc1 (centres undefined) has a reported TGI of > 100 µM

CSc1ccc(C=C2N=C(c3ccccc3)N(c3cc(C(=O)c4ccccc4)ccc3N3C(=O)/C(=C/c4ccc(SC)cc4)N=C3c3ccccc3)C2=O)cc1 has a reported TGI of > 100 µM

----------
# Tested on: NCI-H460 lung
# Procedure text: NCI tumour cell line growth inhibition, 48 h
Measured quantity: TGI

COc1cc2nc(-c3ccc(Cl)cc3)cc(OCCCN3CCC(O)CC3)c2cc1OC has a reported TGI of 14 µM

COc1ccc2c(c1)CC[C@@H]1C2CC[C@]2(C)C(=O)N(C)C(=O)CC12 (stereo partly specified) has a reported TGI of > 100 µM

O=C(c1no[n+]([O-])c1C(=O)c1csc2ccccc12)c1csc2ccccc12 has a reported TGI of 28.3 µM

NC1=NC(=O)[C@H](CSCc2ccccc2)N1C(=O)OCc1ccccc1 has a reported TGI of > 100 µM

COc1cc(-c2cn(-c3ccc(Cl)cc3)c(=O)n2-c2ccccc2)cc(OC)c1OC has a reported TGI of > 100 µM

ClCc1nc2cc(Cl)ccc2o1 has a reported TGI of 31.6 µM

O=C(CN1c2ccccc2Sc2ccccc21)n1cnc2ccccc21 has a reported TGI of > 100 µM

O=C(CC(C(=O)c1ccsc1)c1cccs1)c1ccsc1 (stereo unspecified) has a reported TGI of > 100 µM

COC(=O)Oc1nn(C(=O)OC)c(=O)c2ccccc12 (tested in a mixture with another compound) has a reported TGI of > 100 µM

O=[N+]([O-])c1ccc2nc(/C=C(\O)c3ccccc3)c(/C=C(\O)c3ccc(Cl)cc3)nc2c1 has a reported TGI of > 100 µM

C/C(=N\NC(=S)Nc1ccccc1)c1ccccn1 has a reported TGI of 3.74 µM

COc1ccc(C(c2ccccc2)N2C(=O)CCC2C(=O)O)cc1OC (stereo unspecified) has a reported TGI of > 100 µM

CNS(=O)(=O)NN(C)S(=O)(=O)c1ccc(C)cc1 has a reported TGI of > 100 µM

COc1ccc(N=C/C=C/C(=C/COC(C)=O)OC(C)=O)cc1 has a reported TGI of 98.6 µM

CC(C)(C)OC(=O)N1CCC[C@H]1CSC[C@@H]1CCCN1C(=O)OC(C)(C)C has a reported TGI of > 100 µM

CNC1=C(C)C(=O)C2=C(C1=O)C(COC(N)=O)C1(OC)C3NC3CN21 (stereo unspecified) has a reported TGI of 0.251 µM

----------
# Test system: SK-MEL-2 melanoma
# Procedure text: NCI tumour cell line growth inhibition, 48 h
Measured quantity: TGI

CC(C)Cn1cnnc1NS(=O)(=O)c1cc(C(=O)NN)c(Cl)cc1S has a reported TGI of > 10 µM

O=c1[nH]cnc2c1nnn2C1C=C(CO)C(O)C1O (stereo not given) has a reported TGI of > 100 µM

CC[n+]1c(/C=C/c2ccc(N(CCCl)CCCl)cc2)ccc2cc(Br)ccc21 has a reported TGI of 1.28 µM

CC1(C)O[C@@H]([C@@H](O)[C@H](O)C2SCCCS2)[C@@H](CO)O1 has a reported TGI of > 100 µM

COc1cc([C@@H]2c3cc4c(cc3[C@@H](N=Cc3ccc(C(=O)O[C@H]5C[C@H]6OC[C@@]6(OC(C)=O)[C@H]6[C@H](OC(=O)c7ccccc7)[C@]7(O)C[C@H](OC(=O)[C@H](OC(=O)c8ccc(C=N[C@@H]9c%10cc%11c(cc%10[C@@H](c%10cc(OC)c(O)c(OC)c%10)[C@H]%10C(=O)OC[C@@H]%109)OCO%11)cc8)[C@@H](NC(=O)c8ccccc8)c8ccccc8)C(C)=C([C@@H](OC(C)=O)C(=O)[C@]56C)C7(C)C)cc3)C3COC(=O)C32)OCO4)cc(C)c1O (stereo not given in full) has a reported TGI of > 50 µM

----------
Provide the recorded TGI for the entries that follow.
# Tested on: SK-MEL-5 melanoma
# Procedure text: NCI tumour cell line growth inhibition, 48 h
Kindly provide the numeric value in µM only, without the unit symbol.

O=[N+]([O-])c1ccc(N=Nc2c(O)[nH]c3ccc(Br)cc23)c([N+](=O)[O-])c1 has a reported TGI of 3.49

c1cc(-c2ccc(Oc3ccc(-c4ccncc4)cc3)cc2)ccn1 has a reported TGI of 5.52

CC(C)(C)OC(=O)N1CCC[C@H]1CSC[C@@H]1CCCN1C(=O)OC(C)(C)C has a reported TGI of 32.7

CC(C)c1cc(C(C)C)c(P2(=O)CC3C(Cl)(Cl)C3(C)C2)c(C(C)C)c1 (centres undefined) has a reported TGI of 22.4

Cc1ccc2c(c1)C(=O)c1ccc(C)nc1C2=O has a reported TGI of 26.7

----------
# Tested on: SN12C renal
# Procedure text: NCI tumour cell line growth inhibition, 48 h
Provide the recorded TGI for the entries that follow.

COc1cccc(/C=N/[N-]C(N)=O)c1[O-].[OH3+].[Zn+2] has a reported TGI of > 100 µM

COc1ccc(Nc2nc3c(N)cc(C(F)(F)F)cc3nc2-c2ccccc2)cc1 has a reported TGI of > 100 µM

NC(=S)NS(=O)(=O)c1ccc(F)cc1 has a reported TGI of > 100 µM

CC(C)(C)OC(=O)N1CCC[C@H]1CSC[C@@H]1CCCN1C(=O)OC(C)(C)C has a reported TGI of > 100 µM

C=C1C(=O)C23C(O)C1CCC2C12CO[C@]3(O)[C@@H](O)C1C(C)(C)CCC2O (some centres undefined) has a reported TGI of 27.9 µM

c1ccc(COc2ccc(Nc3ncnc4ccc(-c5ccco5)cc34)cc2)cc1 has a reported TGI of > 25 µM

C=C(CNCCc1ccc(O)cc1)[C@@H]1CC[C@]2(CO)CC[C@]3(C)[C@H](CC[C@@H]4[C@@]5(C)CCC(NCCO)C(C)(C)[C@@H]5CC[C@]43C)[C@@H]12 (some centres undefined) has a reported TGI of 3.25 µM

Nc1nc(Cl)c(N)c(NCC2(CO)CC(O)C2)n1 (centres undefined) has a reported TGI of > 100 µM

COC(=O)C1(c2ccc(OC)cc2)NC(c2ccccc2)C2C(=O)N(c3ccc(OC)cc3)C(=O)C21 (centres undefined) has a reported TGI of > 100 µM

O=C1/C(=C\c2ccccc2)CN(C(=O)c2ccccc2F)C/C1=C\c1ccccc1 has a reported TGI of 3.48 µM

COC(=O)C1(C)CCc2c(ccc3ccccc23)C1=O (centres undefined) has a reported TGI of > 100 µM

COc1ccc2c(c1)OCC1Cc3cccc(OC)c3OC21 (centres undefined) has a reported TGI of > 100 µM

COC(=O)[C@H]1[C@H](OC(=O)[C@@H](OC)c2ccccc2)ON2CC[C@@H](OC(=O)c3ccccc3)[C@H]12 has a reported TGI of > 100 µM

O=C(Nc1ccc(Cl)cc1)C(=O)C1=C(O)c2ccccc2OC1 has a reported TGI of > 100 µM
